I'd appreciate it if you could supply drug sensitivity score values for the items below.
- System: DLD1 NRF2-WT
- protocol summary: drug sensitivity score (DSS) cytotoxicity (DSS score); higher = more toxic; extreme values may be limits of the assay
- assay context: 72 h; CellTox Green cytotoxicity
Give your answer as a number; write no unit.

The compound CC(C)Nc1cc(-c2c[nH]c(C(=O)N[C@H](CO)c3cccc(Cl)c3)c2)c(Cl)cn1 [Ulixertinib] showed drug sensitivity score equal to 0

The compound N#CC(c1ccnc(OCc2ccc(CN3CCOCC3)cc2)n1)c1nc2ccccc2s1 (stereo not drawn) [Bentamapimod] showed drug sensitivity score equal to 0

The compound N[C@@H]1CCCN(c2c(/C=C3\SC(=O)NC3=O)cccc2-c2ccccc2)C1 [AZD1208] showed drug sensitivity score equal to 0

====

I'd appreciate it if you could supply EC50 viability values for the items below.
- Test system: DLD1 NRF2-WT
- assay context: 72 h; CellTiter-Glo viability

The compound C[C@]1(O)C[C@@H](c2nc(-c3ccc4ccc(-c5ccccc5)nc4c3)c3c(N)nccn32)C1 showed EC50 viability equal to > 10000 nM

The compound C[C@@H]1CN(C(=O)c2ccc(NC(=O)c3cc(O[C@H](C)c4c(Cl)ccc(F)c4Cl)c(N)nn3)cc2)C[C@H](C)N1 showed EC50 viability equal to > 1000 nM

The compound CC[C@@H]1[C@H](F)C(=O)N[C@@H]1COc1nccc2cc(C(N)=O)c(OC)cc12 showed EC50 viability equal to > 10000 nM

The compound CN1CCC(COc2cnc(-c3cccc(Cn4nc(-c5cccc(C#N)c5)ccc4=O)c3)nc2)CC1 showed EC50 viability equal to > 1000 nM

The compound C[C@@H]1CN(CC(=O)Nc2ccc3c(c2)Cc2cccc(-c4cc(=O)cc(N5CCOCC5)o4)c2S3)C[C@H](C)O1 showed EC50 viability equal to > 25000 nM

The compound CC[C@@H]1CN(C(=O)NCC(F)(F)F)C[C@@H]1c1cnc2cnc3[nH]ccc3n12 showed EC50 viability equal to > 10000 nM

The compound CC1(C)CNc2cc(NC(=O)c3cccnc3NCc3ccncc3)ccc21 showed EC50 viability equal to 565 nM

The compound COCCNCc1ccc(-c2cc3nccc(Oc4ccc(NC(=O)C5(C(=O)Nc6ccc(F)cc6)CC5)cc4F)c3s2)nc1 showed EC50 viability equal to 138 nM

The compound CCOc1cc2ncc(C#N)c(Nc3ccc(OCc4ccccn4)c(Cl)c3)c2cc1NC(=O)/C=C/CN(C)C showed EC50 viability equal to 102 nM

The compound Cn1cc(C2=C(c3cn(C4CCN(Cc5ccccn5)CC4)c4ccccc34)C(=O)NC2=O)c2ccccc21 showed EC50 viability equal to > 10000 nM

The compound COc1ccccc1S(=O)(=O)Nc1ccc2c(c1)CN(C)C(=O)N2 showed EC50 viability equal to 1940 nM

The compound Cc1cn(-c2cc(NC(=O)c3ccc(C)c(Nc4nccc(-c5cnccn5)n4)c3)cc(C(F)(F)F)c2)cn1 showed EC50 viability equal to > 10000 nM

The compound CCN(CC)CCOc1ccc(/C(=C(/Cl)c2ccccc2)c2ccccc2)cc1 showed EC50 viability equal to 3080 nM

The compound O=C1NC(=O)[C@@H](c2cn3c4c(cccc24)CCC3)[C@@H]1c1c[nH]c2ccccc12 [Tivantinib] showed EC50 viability equal to 164 nM

The compound O=C(Nc1ccncc1)C(=O)c1cn(Cc2ccc(Cl)cc2)c2ccccc12 showed EC50 viability equal to 283 nM

The compound Sc1ncnc2nc[nH]c12 showed EC50 viability equal to 4290 nM

The compound COc1cc(Nc2ncc(F)c(Nc3ccc4c(n3)NC(=O)C(C)(C)O4)n2)cc(OC)c1OC showed EC50 viability equal to > 10000 nM

The compound N#CCNC(=O)c1ccc(-c2ccnc(Nc3ccc(N4CCOCC4)cc3)n2)cc1 showed EC50 viability equal to 2800 nM

The compound C=CC(=O)Nc1cc(Nc2nccc(-c3cn(C)c4ccccc34)n2)c(OC)cc1N(C)CCN(C)C showed EC50 viability equal to 424 nM

The compound O=C(NOCCO)c1ccc2cncn2c1Nc1ccc(I)cc1F showed EC50 viability equal to 429 nM

The compound O=C(CCNC(=O)c1ccc(OC(F)(F)F)cc1)N[C@@H]1CCCc2ccccc21 showed EC50 viability equal to > 50000 nM

The compound CC(C)(C)c1cc(NC(=O)Nc2ccc(Oc3ccnc4[nH]c(=O)cnc34)cc2F)n(-c2ccccc2)n1 showed EC50 viability equal to 3110 nM

The compound Cc1ccc(F)c(NC(=O)Nc2ccc(-c3cccc4[nH]nc(N)c34)cc2)c1 showed EC50 viability equal to > 1000 nM

The compound COc1cc(Nc2ncc(F)c(Nc3ccc4c(n3)N(COP(=O)(O)O)C(=O)C(C)(C)O4)n2)cc(OC)c1OC showed EC50 viability equal to 38.5 nM
